- SYSTEM TESTED: T1, human CGRP receptor (human CRLR / human RAMP1 heterodimer) (human, UniProt Q16602 23-461; O60894 27-148)
- T1 construct: Full-length receptor: endogenous on SK-N-MC (HTB-10) cells in the cAMP assay; also called hCGRP receptor on SK-N-MC (HTB-10) cells; Human CGRP Receptor/AMID detergent-solubilized cell lysate
- T1 sequence (Q16602 23-461 limits assumed, chain 1 of 2): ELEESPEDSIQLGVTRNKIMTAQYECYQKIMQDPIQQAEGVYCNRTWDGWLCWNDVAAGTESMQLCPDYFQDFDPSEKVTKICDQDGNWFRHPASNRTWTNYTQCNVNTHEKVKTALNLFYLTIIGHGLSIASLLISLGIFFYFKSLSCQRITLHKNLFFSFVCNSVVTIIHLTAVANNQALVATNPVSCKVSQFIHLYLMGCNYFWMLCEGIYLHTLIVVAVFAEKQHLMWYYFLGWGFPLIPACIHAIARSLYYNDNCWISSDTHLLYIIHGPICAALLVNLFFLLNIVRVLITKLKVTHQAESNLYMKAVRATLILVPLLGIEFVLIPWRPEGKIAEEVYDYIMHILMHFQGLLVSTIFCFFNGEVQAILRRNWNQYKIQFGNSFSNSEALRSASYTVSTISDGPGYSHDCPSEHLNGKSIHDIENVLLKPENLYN
- T1 sequence (O60894 27-148 limits assumed, chain 2 of 2): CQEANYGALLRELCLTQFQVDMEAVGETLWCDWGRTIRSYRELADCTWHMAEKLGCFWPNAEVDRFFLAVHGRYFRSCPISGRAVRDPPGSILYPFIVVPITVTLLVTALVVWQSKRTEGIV
- ASSAY SUMMARY: yeast-displayed Fab, FACS, detergent-solubilized lysate of human CGRP receptor-expressing cells vs blank cells
MEASURED PROPERTY: Mutant vs. 4E4.2 Parent Specific Binding Ratio (fold)
# output: bare number, implied unit fold

Input line: // lookup Mutant vs. 4E4.2 Parent Specific Binding Ratio for anti-CGRP receptor variant 14, yeast-displayed Fab (Fab, V domains shown, also called Variant Ab ID 14) VH: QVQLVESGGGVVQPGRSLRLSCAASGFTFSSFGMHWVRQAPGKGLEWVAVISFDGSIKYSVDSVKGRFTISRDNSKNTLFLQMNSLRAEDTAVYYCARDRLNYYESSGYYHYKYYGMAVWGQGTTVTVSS VL: QSVLTQPPSVSAAPGQKVTISCSGSSSNIGNNYVSWYQQLPGTAPKLLIYDNNKRPSGIPDRFSGSKSGTSATLGITGLQTGDEADYYCGTWDSWHRVVTFGGGTKLTVLG
Output line: 1.7

Input line: Also check anti-CGRP receptor variant 15, yeast-displayed Fab (Fab, V domains shown, also called Variant Ab ID 15) VH: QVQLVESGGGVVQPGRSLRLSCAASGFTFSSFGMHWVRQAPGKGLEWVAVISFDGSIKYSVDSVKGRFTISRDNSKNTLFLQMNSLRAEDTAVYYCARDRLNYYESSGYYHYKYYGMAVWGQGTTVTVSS VL: QSVLTQPPSVSAAPGQKVTISCSGSSSNIGNNYVSWYQQLPGTAPKLLIYDNNKRPSGIPDRFSGSKSGTSATLGITGLQTGDEADYYCGTWDWWRKAVIFGGGTKLTVLG
Output line: 1.5

Input line: Also check 4E4.2 parental Fab, yeast-displayed (Fab, V domains shown, also called parental 4E4.2 Fab) VH: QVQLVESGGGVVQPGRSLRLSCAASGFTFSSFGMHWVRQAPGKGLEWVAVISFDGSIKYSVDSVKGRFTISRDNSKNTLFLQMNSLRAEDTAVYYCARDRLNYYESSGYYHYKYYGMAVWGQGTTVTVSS VL: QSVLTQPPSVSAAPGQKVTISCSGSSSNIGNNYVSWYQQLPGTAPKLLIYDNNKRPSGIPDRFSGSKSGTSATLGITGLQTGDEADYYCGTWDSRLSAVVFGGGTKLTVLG
Output line: 1
